test system: CCRF-CEM; test: NCI tumour cell line growth inhibition, 48 h
Calls of active or inactive are those of the source. Rule as the data show it: active = GI50 up to about 1.1 µM and inactive = higher.
Select the matching outcome among Yes for active, No for inactive

compound=C=C(C)[C@@H]1CC[C@]2(CO)CC[C@]3(C)[C@H](CC[C@@H]4[C@@]5(C)CC[C@H](O)C(C)(C)[C@@H]5CC[C@]43C)[C@@H]12 assigned_class=No
compound="CC(C)=CCC(O)[C@](C)(O)[C@H]1[C@H](O)C[C@@]2(C)[C@@H]3CCc4cc(O)c(OC5OC(CO)C(O)C(O)C5O)cc4C3(C)C(=O)C[C@]12C (stereo partly drawn)" assigned_class=No
compound=CCCCCCCCCC[C@H](O)[C@H]1CC[C@H]([C@H]2CC[C@H]([C@H](O)CC[C@H](O)CCCCCCC[C@@H](O)CC3=C[C@H](C)OC3=O)O2)O1 assigned_class=No
compound=COc1ccccc1/C=C(\C#N)c1ccccc1 assigned_class=No
compound=COc1ccc(-c2nnc(CCCCCCCCc3nnc(-c4ccc(OC)cc4)o3)o2)cc1 assigned_class=No

Outcome? `Fc1ccc(/C(=N/Cc2ccccc2)N2CCOCC2)cc1`
No

Outcome? `COc1cc(CCNC2=CC(=O)c3nc[nH]c3C2=O)ccc1O`
No

Outcome? O=C(O)C1CCN(Cc2oc(CO)cc(=O)c2O)C1 (stereo not drawn)
No

Outcome? CC(O)[C@@]1(c2ccccc2)CC2(CCN(C)CC2)O[C@H]1C (stereo partly drawn)
Yes

Outcome? `Cc1cn([C@@H]2C[C@](C)(CO)N(C)O2)c(=O)[nH]c1=O`
No

Outcome? `COc1cc(/C=C2\CC/C(=C\c3cc(OC)c(O)c(OC)c3)C2=O)cc(OC)c1O`
No

Outcome? `COc1cc2c(c(OC)c1OC)C(=O)NCCC2`
No

Outcome? C[C@@H]1CC[C@@]2(C)[C@H](C)/C(=C\COC(=O)/C=C/c3ccc(O)c(O)c3)CC[C@@]12C [NAVICULYL CAFFEATE]
Yes

Outcome? `Oc1cc2c3c(c1)c1cc4c(cc1c[n+]3CC2)OCO4`
No

Outcome? `COCc1cc2c(cc1/C(=C/[N+](=O)[O-])CS(=O)(=O)c1ccccc1)OCO2`
No

---

test system: HOP-62; test: NCI tumour cell line growth inhibition, 48 h
Active and inactive are the calls of the source. Rule as the data show it: active = GI50 up to about 1.1 µM and inactive = higher.
Select the matching outcome among T (active), F (inactive)

Below, 5 compounds whose answers are already recorded.
compound="COc1cc(C2c3c(ccc4ccccc34)C(=O)C3CCC(=O)N32)cc(OC)c1OC (centres undefined)" assigned_class=F
compound=COc1ccccc1/C=C(\C#N)c1ccccc1 assigned_class=F
compound="CCOC(OC1=C(C#N)CCCC1)C(C)[Se]c1ccccc1 (centres undefined)" assigned_class=F
compound=c1cc(-c2ccc(-c3nc4ccc(C5=NCCN5)cc4s3)s2)ccc1C1=NCCN1 assigned_class=T
compound=Cc1cc(C)c(-c2no/c(=N\S(=O)(=O)c3ccc(Cl)cc3)o2)c(C)c1 assigned_class=F

Outcome? COC(=O)C(=O)C(C#N)c1c(Cl)cccc1Cl (centres undefined)
F

Outcome? `CCCCCCCCCC[C@H](O)[C@H]1CC[C@H]([C@H]2CC[C@H]([C@H](O)CC[C@H](O)CCCCCCC[C@@H](O)CC3=C[C@H](C)OC3=O)O2)O1`
F

Outcome? `O=c1cc2ccccc2nn1-c1ccccc1Cl`
F

Outcome? N#C[BH2-][n+]1cn(C2CC(OP(=O)(O)OCC3OC(n4cnc5c(=O)[nH]c(N)nc54)CC3O)C(CO)O2)c2nc(N)[nH]c(=O)c21 (centres undefined)
F
